Measurement target: Aldo-keto reductase family 1 member C3 (Homo sapiens, UniProt P42330)
Sequence (P42330 whole entry): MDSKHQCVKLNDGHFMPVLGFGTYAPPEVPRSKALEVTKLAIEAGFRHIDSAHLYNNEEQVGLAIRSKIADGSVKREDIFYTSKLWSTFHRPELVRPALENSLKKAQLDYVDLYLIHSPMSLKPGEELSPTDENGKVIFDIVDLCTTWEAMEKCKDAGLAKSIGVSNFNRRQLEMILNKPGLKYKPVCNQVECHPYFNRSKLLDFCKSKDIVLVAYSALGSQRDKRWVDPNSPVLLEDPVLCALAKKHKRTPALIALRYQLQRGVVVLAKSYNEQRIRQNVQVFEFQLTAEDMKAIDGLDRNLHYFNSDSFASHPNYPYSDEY
Assay procedure: Inhibition of human 17beta-HSD5 expressed in human CWR22R cells using androstenedione as substrate assessed as testosterone synthesis after 4 hrs
Type: cell-based
I'd be grateful if you could share measured pIC50 for these entries.
Friendly reminder that pIC50 comes from taking -log10 of the concentration in mol/L.

Give recorded pIC50. Cc1ccc2[nH]c(C(=O)N3CCC(CCO)CC3)cc2c1
7.24

Give recorded pIC50. Cc1ccc2[nH]c(C(=O)N3CCC(CC(C)(C)O)CC3)cc2c1
8.72

###

Measurement target: Aldo-keto reductase family 1 member C3 (Homo sapiens, UniProt P42330)
Assay procedure: Inhibition of human 17beta-HSD5 expressed in HEK293 cells using androstenedione as substrate assessed as testosterone synthesis after 4 hrs
Format: cell-based
Endpoint: pIC50
Friendly reminder that pIC50 comes from taking -log10 of the concentration in mol/L.

Print Aldo-keto reductase family 1 member C3 (Homo sapiens, UniProt P42330) pIC50 for CC(O)CC1CCN(C(=O)c2cc3ccccc3[nH]2)CC1 (stereo not given) .
7.92

Print Aldo-keto reductase family 1 member C3 (Homo sapiens, UniProt P42330) pIC50 for O=C(c1cc2ccccc2[nH]1)N1CCCC(CCO)C1 (stereo not given) .
5.68

Print Aldo-keto reductase family 1 member C3 (Homo sapiens, UniProt P42330) pIC50 for Cc1ccc2[nH]c(C(=O)N3CCC(CCO)CC3)cc2c1 .
7.43

Print Aldo-keto reductase family 1 member C3 (Homo sapiens, UniProt P42330) pIC50 for Cc1ccc2[nH]c(C(=O)N3CCC(CC(C)(C)O)CC3)cc2c1 .
9.47

Print Aldo-keto reductase family 1 member C3 (Homo sapiens, UniProt P42330) pIC50 for CC(C)(O)CC1CCN(C(=O)c2cc3ccccc3[nH]2)CC1 .
8.68

###

Measurement target: Aldo-keto reductase family 1 member C3 (Homo sapiens, UniProt P42330)
Assay procedure: Inhibition of human AKR1C3-mediated 9,10-phenanthrenequinone reduction after 10 to 20 mins by spectrophotometry in presence of NADPH
Endpoint: IC50 (nM)
Give the number; nM is assumed, so skip it.

Give recorded IC50. Cc1ccc2[nH]c(C(=O)N3CCC(CC(C)(C)O)CC3)cc2c1
24

###

I'd be grateful if you could share measured concentration at 4 h for these entries.
Assay procedure: Plasma concentration in ICR mouse at 30 mg/kg, po after 4 hrs by HPLC analysis
Format: ADME, organism-based
Design: dose 30 mg/kg, route oral

Give recorded concentration at 4 h. Cc1ccc2[nH]c(C(=O)N3CCC(CCO)CC3)cc2c1
< 100 nM

Give recorded concentration at 4 h. Cc1ccc2[nH]c(C(=O)N3CCC(CC(C)(C)O)CC3)cc2c1
3100 nM

Give recorded concentration at 4 h. CC(C)(O)CC1CCN(C(=O)c2cc3ccccc3[nH]2)CC1
< 100 nM
